- Test system: SNB-75 CNS
- testName: NCI-60 one-dose screen, 48 h
- conditions: 10 µM unless noted
Compounds without any hit were thinned out: in the full panel of roughly 83,000, 20% have a hit. Calls of active or inactive are those of the source. The calls were made as follows: active = growth percent below 10; inactive = the rest.
Outcomes: 1 (yes) = active, 0 (no) = inactive

compound	className
COC(=O)[C@]12CC[C@@H](C)[C@H](C)[C@@H]1C1=CC[C@@H]3[C@@]4(C)C[C@@H](OC(C)=O)[C@H](OC(C)=O)[C@@](C)(COC(C)=O)[C@@H]4[C@H](O)C[C@@]3(C)[C@]1(C)CC2	0 (no)
Cn1cc(-c2csc(-c3c[nH]c4ccc(F)cc34)n2)c2cccnc21	0 (no)
COC(=O)[C@]12CC[C@@H](C)[C@H](C)[C@@H]1C1=CC[C@@H]3[C@@]4(C)C[C@@H](O)[C@H](O)[C@@](C)(CO)C4=CC[C@@]3(C)[C@]1(C)CC2	1 (yes)
COc1cc2nc(Cl)nc(Nc3cccc(C(=O)/C=C/c4ccc(Cl)cc4)c3)c2cc1OC	0 (no)
c1ccc(C2Cc3ccccc3C2=NC2CCCCC2)cc1 (configuration not stated)	0 (no)
CC(=O)Nc1cc(F)cc(C(F)(F)F)c1Cl	0 (no)
COc1cc(-c2cc3ncccc3c3nc(N)c4cccnc4c23)cc(OC)c1OC	1 (yes)
CCCCCCCC(=O)SCC/C=C/[C@@H]1CC(=O)NCc2cccc(n2)CN(Cc2ccc3ccccc3c2)CC(=O)N[C@@H](C(C)C)C(=O)O1	0 (no)
CCN1CCN(C(=O)[C@]23CCC(C)(C)C[C@@H]2C2=CC[C@@H]4[C@@]5(C)C/C(=C/c6cccnc6)C(=O)C(C)(C)[C@@H]5CC[C@@]4(C)[C@]2(C)CC3)CC1	0 (no)
CC/C(=N/NC(N)=O)c1ccccc1	0 (no)
CC1(C)NC2=C(C(Nc3cccnc3)N1)C(c1ccc([N+](=O)[O-])cc1)C(C(=O)c1ccc(N=[N+]=[N-])cc1)O2 (configuration not stated)	0 (no)
Cc1csc(Nc2nc(-c3ccc(Cl)cc3)nc(C(Cl)(Cl)Cl)n2)n1	0 (no)
CN1CCN(c2nc(-c3csc(-c4cccs4)n3)cc3ccccc23)CC1	0 (no)
CCCNc1nc(N(C)O)nc(N(C)O)n1	0 (no)
O=C1Nc2ccccc2/C1=C/c1cn(CCCn2c3ccccc3c(=O)c3ccccc32)c2ccccc12	0 (no)
Cc1cc(N2CCCC2)nc(N(CCNc2ccnc3cc(Cl)ccc23)Cc2ccco2)n1	0 (no)
CC(C)=CCC/C(C)=C/CC/C(C)=C/CC/C(C)=C/CSC[C@H](NC(=O)CCCCCN1CCN(C)CC1)C(=O)NC1CCCCC1	0 (no)
